# System name: Toll-like receptor 9 (Homo sapiens)
# Sequence (Q9NR96 whole entry): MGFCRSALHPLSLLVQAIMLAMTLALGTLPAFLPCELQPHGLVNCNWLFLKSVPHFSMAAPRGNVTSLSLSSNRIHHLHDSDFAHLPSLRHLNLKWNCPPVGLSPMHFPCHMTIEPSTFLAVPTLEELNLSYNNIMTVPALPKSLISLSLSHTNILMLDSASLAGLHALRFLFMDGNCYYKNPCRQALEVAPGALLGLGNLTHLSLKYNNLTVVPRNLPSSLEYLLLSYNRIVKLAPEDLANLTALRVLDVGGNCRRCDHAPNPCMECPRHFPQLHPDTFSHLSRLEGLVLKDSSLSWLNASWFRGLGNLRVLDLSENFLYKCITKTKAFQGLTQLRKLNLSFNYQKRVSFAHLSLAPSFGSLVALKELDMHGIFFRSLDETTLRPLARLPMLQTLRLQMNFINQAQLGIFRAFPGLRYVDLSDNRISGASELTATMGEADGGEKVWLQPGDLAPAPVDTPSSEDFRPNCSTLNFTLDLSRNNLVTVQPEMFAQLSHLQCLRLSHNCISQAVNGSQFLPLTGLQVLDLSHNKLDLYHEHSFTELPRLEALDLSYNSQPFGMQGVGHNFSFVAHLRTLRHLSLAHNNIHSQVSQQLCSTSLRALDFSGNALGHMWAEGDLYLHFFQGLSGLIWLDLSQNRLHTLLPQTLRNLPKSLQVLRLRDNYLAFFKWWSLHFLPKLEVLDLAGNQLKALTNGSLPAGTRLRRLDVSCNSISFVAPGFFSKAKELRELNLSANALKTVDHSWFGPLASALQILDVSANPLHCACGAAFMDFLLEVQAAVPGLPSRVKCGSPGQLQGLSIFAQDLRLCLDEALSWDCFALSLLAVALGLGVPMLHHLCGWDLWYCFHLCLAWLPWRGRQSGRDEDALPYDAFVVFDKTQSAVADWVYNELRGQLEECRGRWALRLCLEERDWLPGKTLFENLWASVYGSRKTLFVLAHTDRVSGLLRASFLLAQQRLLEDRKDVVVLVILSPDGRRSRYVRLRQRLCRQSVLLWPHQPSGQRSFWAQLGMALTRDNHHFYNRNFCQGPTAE
# Test name: Inhibition of human TLR9 expressed in HEK-Blue cells assessed as inhibition of ODN2006-induced NF-kappaB and AP-1 activation measured after 20 hrs by quanti-blue based SEAP reporter gene assay
pIC50: −log10 of the molar value.
Outcome measure: pIC50

- [2H]c1ccc2c(N3CC4CN(c5ncc(N6CCOC[C@H](N)C6)cc5C)CCN4[C@@H](C)C3)ccc(C#N)c2n1 (some centres not stated): 7.15
- C[C@@H]1CN(c2ccc(C#N)c3ncccc23)C[C@@H]2CN(c3cccc4c3CCNC4)CCN21: 7.27

Origin of measurements: ChEMBL document CHEMBL4673381
